- assay explanation: Polymorph screening of solid state drug substances (Table 23)
- Assay type: physicochemical
- cond: EtOAc, stirred 50 °C 72 hours
reported endpoint: XRPD results (Dried)

C=C1CC[C@@]2(O)C3Cc4ccc(OC(=O)OCCCCCCCCCCCCCCCC)c5c4[C@@]2(CCN3CC2CC2)[C@H]1O5 Pattern A
CCCCCCCCCCOC(=O)Oc1ccc2c3c1O[C@H]1C(=O)CC[C@@]4(O)C(C2)N(CC2CC2)CC[C@]314 Pattern A
C=C1CC[C@@]2(O)C3Cc4ccc(OC(=O)CCCCCCCCCCCCCCCCCCCCC)c5c4[C@@]2(CCN3CC2CC2)[C@H]1O5 Pattern A

* * *

- assay explanation: Rat pharmacokinetic studies, intramuscular administration
- Type: in vivo, male Sprague Dawley Rats
- cond: male, Sprague Dawley, rat, plasma, intramuscular, 0.8 mg/kg
Counter-ions that a name gives are not always drawn.
reported endpoint: concentration at 2 h (ng/mL)
Report as a plain number; the unit ng/mL is understood.

For the compound shown here, C=C1CC[C@@]2(O)[C@H]3Cc4ccc(O)c5c4[C@@]2(CCN3CC2CC2)[C@H]1O5 [nalmefene HCL, reference compound] , give the reported concentration at 2 h.
2.09

* * *

- assay explanation: Dog pharmacokinetic studies, deep intramuscular administration
- Type: in vivo, Beagle dogs
- cond: Beagle, dog, plasma, im, 48 mg/kg, IM 48 mg/kg, Sesame oil + 1% Benzyl Alcohol; read-out: Half-life t1/2 (hour) prodrug (converted)
reported endpoint: half-life (h)
Report as a plain number; the unit h is understood.

For the molecule shown here, C=C1CC[C@@]2(O)C3Cc4ccc(OCOC(=O)OCCCCCCCCCCC)c5c4[C@@]2(CCN3CC2CC2)[C@H]1O5 , give the reported half-life.
70.9

For the molecule shown here, C=C1CC[C@@]2(O)C3Cc4ccc(OCOC(=O)OCCCCCCCCCC)c5c4[C@@]2(CCN3CC2CC2)[C@H]1O5 , give the reported half-life.
70

For the molecule shown here, C=C1CC[C@@]2(O)C3Cc4ccc(OCOC(=O)OCCCCCCCC/C=C/CCCCCCCC)c5c4[C@@]2(CCN3CC2CC2)[C@H]1O5 , give the reported half-life.
261

For the molecule shown here, C=C1CC[C@@]2(O)C3Cc4ccc(OC(=O)CCCCCCC/C=C/CCCCCCCC)c5c4[C@@]2(CCN3CC2CC2)[C@H]1O5 , give the reported half-life.
518

For the molecule shown here, C=C1CC[C@@]2(O)C3Cc4ccc(OC(=O)OCCCCCCCCCCC)c5c4[C@@]2(CCN3CC2CC2)[C@H]1O5 , give the reported half-life.
63.1

* * *

So I've got a bunch of molecules here, and I need their % remaining at 60 minutes, Dog values.
- assay explanation: Liver S9 fraction stability, dog
- Assay type: in vitro ADME
- cond: dog liver S9 1.0 mg/ml, 2 μM, 37° C.
Report as a plain number; the unit % is understood.

For the molecule shown here, C=C1CC[C@@]2(O)C3Cc4ccc(OC(=O)OCCCCCCCCCCCC)c5c4[C@@]2(CCN3CC2CC2)[C@H]1O5 , give the reported % remaining at 60 minutes, Dog.
17.1

For the molecule shown here, CCCCCCCCCCCCCCCC(=O)OC1CCCn2c1nc(C)c(CCN1CCC(c3noc4cc(F)ccc34)CC1)c2=O (centres unmarked) [Paliperidone palmitate, reference compound] , give the reported % remaining at 60 minutes, Dog.
56.4

For the molecule shown here, CCCCCCCCCCCC(=O)OCN1C(=O)CCc2ccc(OCCCCN3CCN(c4cccc(Cl)c4Cl)CC3)cc21 [Aripiprazole lauroxil, reference compound] , give the reported % remaining at 60 minutes, Dog.
66.1

For the molecule shown here, C=C1CC[C@@]2(O)C3Cc4ccc(OCOC(=O)OCCCCCCCCCCCC)c5c4[C@@]2(CCN3CC2CC2)[C@H]1O5 , give the reported % remaining at 60 minutes, Dog.
3.6

For the molecule shown here, C=C1CC[C@@]2(O)C3Cc4ccc(OC(=O)CCCCCCC/C=C/CCCCCCCC)c5c4[C@@]2(CCN3CC2CC2)[C@H]1O5 , give the reported % remaining at 60 minutes, Dog.
80.9

* * *

- assay explanation: Solubility determination in oil (Table 10)
- cond: 40 °C, organic solvent or mixture, thermodynamic from solid, Approximate Solubility in Excipient: Ethanol, Heating Temp. 60 °C, Obs. Temp. 40 °C
reported endpoint: solubility

For the compound shown here, CCCCCCCCOC(=O)Oc1ccc2c3c1O[C@H]1C(=O)CC[C@@]4(O)C(C2)N(CC2CC2)CC[C@]314 , give the reported solubility.
> 419 mg/mL

For the compound shown here, CCCCCCCCCCCCCCCCOC(=O)Oc1ccc2c3c1O[C@H]1C(=O)CC[C@@]4(O)C(C2)N(CC2CC2)CC[C@]314 , give the reported solubility.
50 to 100 mg/mL

For the compound shown here, CCCCCCCC/C=C\CCCCCCCCCCCC(=O)Oc1ccc2c3c1O[C@H]1C(=O)CC[C@@]4(O)C(C2)N(CC2CC2)CC[C@]314 , give the reported solubility.
> 398 mg/mL

For the compound shown here, C=C1CC[C@@]2(O)C3Cc4ccc(OC(=O)CCCCCCCCCCCCCCC)c5c4[C@@]2(CCN3CC2CC2)[C@H]1O5 , give the reported solubility.
< 40.4 mg/mL

For the compound shown here, CCCCCCCCCCCCCCCC(=O)Oc1ccc2c3c1O[C@H]1C(=O)CC[C@@]4(O)C(C2)N(CC2CC2)CC[C@]314 , give the reported solubility.
> 401 mg/mL

* * *

- assay explanation: Rat pharmacokinetic studies, intramuscular administration
- Assay type: in vivo, male Sprague Dawley Rats
- cond: male, Sprague Dawley, rat, plasma, intramuscular, 0.8 mg/kg
Where a name gives a salt, the structure may show the parent alone.
reported endpoint: concentration at 4 h (ng/mL)
Report as a plain number; the unit ng/mL is understood.

For the molecule shown here, C=C1CC[C@@]2(O)[C@H]3Cc4ccc(O)c5c4[C@@]2(CCN3CC2CC2)[C@H]1O5 [nalmefene HCL, reference compound] , give the reported concentration at 4 h.
0.212

* * *

So I've got a bunch of compounds here, and I need their solubility values.
- assay explanation: Solubility determination in oil (Table 10)
- cond: 40 °C, organic solvent or mixture, thermodynamic from solid, Approximate Solubility in Excipient: Ethanol, Heating Temp. 40 °C, Obs. Temp. 40 °C

For the compound shown here, C=C1CC[C@@]2(O)C3Cc4ccc(OC(=O)CCCCCCC/C=C/CCCCCCCC)c5c4[C@@]2(CCN3CC2CC2)[C@H]1O5 , give the reported solubility.
< 20 mg/mL

For the compound shown here, C=C1CC[C@@]2(O)C3Cc4ccc(OC(=O)CCCCCCCCCCCCCCCCCCC)c5c4[C@@]2(CCN3CC2CC2)[C@H]1O5 , give the reported solubility.
< 25 mg/mL

For the compound shown here, C=C1CC[C@@]2(O)C3Cc4ccc(OC(=O)CCCCCCCCCCC/C=C\CCCCCCCC)c5c4[C@@]2(CCN3CC2CC2)[C@H]1O5 , give the reported solubility.
> 214 mg/mL

For the compound shown here, C=C1CC[C@@]2(O)C3Cc4ccc(OC(=O)CCCCCCCCCCCCCCCCC)c5c4[C@@]2(CCN3CC2CC2)[C@H]1O5 , give the reported solubility.
65 to 75 mg/mL

For the compound shown here, C=C1CC[C@@]2(O)C3Cc4ccc(OC(=O)CC(C)(C)C)c5c4[C@@]2(CCN3CC2CC2)[C@H]1O5 , give the reported solubility.
160 to 200 mg/mL

For the compound shown here, CC(C)(C)CC(=O)Oc1ccc2c3c1O[C@H]1C(=O)CC[C@@]4(O)C(C2)N(CC2CC2)CC[C@]314 , give the reported solubility.
78 to 93 mg/mL

For the compound shown here, C=C1CC[C@@]2(O)C3Cc4ccc(OC(=O)CCCCCCCCCCCCCCCCCCCCC)c5c4[C@@]2(CCN3CC2CC2)[C@H]1O5 , give the reported solubility.
69 to 83 mg/mL

For the compound shown here, CCCCCCCCCCCCOC(=O)Oc1ccc2c3c1O[C@H]1C(=O)CC[C@@]4(O)C(C2)N(CC2CC2)CC[C@]314 , give the reported solubility.
> 218 mg/mL

For the compound shown here, C=C1CC[C@@]2(O)C3Cc4ccc(OC(=O)OCCCCCCCCCC)c5c4[C@@]2(CCN3CC2CC2)[C@H]1O5 , give the reported solubility.
> 209 mg/mL

For the compound shown here, O=C(CCC1CCCC1)Oc1ccc2c3c1O[C@H]1C(=O)CC[C@@]4(O)C(C2)N(CC2CC2)CC[C@]314 , give the reported solubility.
> 257 mg/mL

For the compound shown here, C=C1CC[C@@]2(O)C3Cc4ccc(OC(=O)CCCCCCC/C=C\C/C=C\CCCCC)c5c4[C@@]2(CCN3CC2CC2)[C@H]1O5 , give the reported solubility.
75 to 90 mg/mL

For the compound shown here, C=C1CC[C@@]2(O)C3Cc4ccc(OC(=O)CCC5CCCC5)c5c4[C@@]2(CCN3CC2CC2)[C@H]1O5 , give the reported solubility.
150 to 200 mg/mL

For the compound shown here, C=C1CC[C@@]2(O)C3Cc4ccc(OC(=O)CCCCCCC/C=C\C/C=C\C/C=C\CC)c5c4[C@@]2(CCN3CC2CC2)[C@H]1O5 , give the reported solubility.
157 to 197 mg/mL

For the compound shown here, C=C1CC[C@@]2(O)C3Cc4ccc(OC(=O)OCCCCCCCC)c5c4[C@@]2(CCN3CC2CC2)[C@H]1O5 , give the reported solubility.
> 209 mg/mL

FYI, the data here is from patent US20190308988A1.
